Papp A→B at 10 µM by entry:
assaySummary: Apparent permeability from apical to basolateral side of human Caco2 cells at 10 uM by LC/MS/MS analysis
Type: ADME, cell-based
reportedConditions: Caco-2

smilesStructure: C/C=C(\C)C(=O)N[C@@H](c1ccccc1)[C@@H](O)C(=O)O[C@H]1C[C@@]2(O)[C@@H](OC(=O)c3cccc(N=[N+]=[N-])c3)[C@@H]3[C@]4(OC(C)=O)CO[C@@H]4C[C@H](OC(=O)NC)[C@@]3(C)C(=O)[C@H](O)C(=C1C)C2(C)C
Papp A→B at 10 µM, ×10⁻⁶ cm/s: 2.55
//
smilesStructure: C/C=C(\C)C(=O)N[C@@H](c1ccccc1)[C@@H](O)C(=O)O[C@H]1C[C@@]2(O)[C@@H](OC(=O)c3cccc(N=[N+]=[N-])c3)[C@@H]3[C@]4(OC(C)=O)CO[C@@H]4C[C@H](OC(=O)C4CC4)[C@@]3(C)C(=O)[C@H](O)C(=C1C)C2(C)C
Papp A→B at 10 µM, ×10⁻⁶ cm/s: 7.35
//
smilesStructure: C/C=C(\C)C(=O)N[C@@H](c1ccccc1)[C@@H](O)C(=O)O[C@H]1C[C@@]2(O)[C@@H](OC(=O)c3cccc(N=[N+]=[N-])c3)[C@@H]3[C@]4(OC(C)=O)CO[C@@H]4C[C@H](OC(=O)OCC)[C@@]3(C)C(=O)[C@H](O)C(=C1C)C2(C)C
Papp A→B at 10 µM, ×10⁻⁶ cm/s: 7.46
//
smilesStructure: C/C=C(\C)C(=O)N[C@@H](c1ccccc1)[C@@H](O)C(=O)O[C@H]1C[C@@]2(O)[C@@H](OC(=O)c3cccc(N=[N+]=[N-])c3)[C@@H]3[C@]4(OC(C)=O)CO[C@@H]4C[C@H](OC(=O)CC)[C@@]3(C)C(=O)[C@H](O)C(=C1C)C2(C)C
Papp A→B at 10 µM, ×10⁻⁶ cm/s: 0.095

src = ChEMBL document CHEMBL1806422
